B1: EEHEE_rd4_0469 (parent)
chain: ITIHVNGVTYHFDNPEEAEKFAQKMAKTYQLKMEIHNGEFHME

variants of: B1; assay: folding stability dG (cDNA display proteolysis); higher = more stable; details: PBS, room temperature

SEQ_STRING | QUANTITY_UNIT | folding stability dG
ITIHVNGVTYHFDNPEEAEKFYQKMAKTYQLKMEIHNGEFHME | kcal/mol | 1.01
ITIHVNGVTYHFDNPEEAEWFAQKMAKTYQLKMEIHNGEFHME | kcal/mol | 1.02
ITIHVNGVTYHFDNPEEAEKFAQKMAKTYQHKMEIHNGEFHME | kcal/mol | 0.984
ITIHVNGVTYQFDNPEEAEKFAQKMAKTYQLKMEIHNGEFHME | kcal/mol | 1.01
IQIHVNGVTYHFDNPEEAEKFAQKMAKTYQLKMEIHNGEFHME | kcal/mol | 0.972
ITIHVNGVTYNFDNPEEAEKFAQKMAKTYQLKMEIHNGEFHME | kcal/mol | 0.977
ITIHVNKVTYHFDNPEEAEKFAQKMAKTYQLKMEIHNGEFHME | kcal/mol | 1
ITIHVNGVTYHFDNPEEAEKFAQKMATTYQLKMEIHNGEFHME | kcal/mol | 1.02
ITIHVNGVTYHFDNPEEAEKFAQKMAKWYQLKMEIHNGEFHME | kcal/mol | 1.95
ITIHVNGVWYHFDNPEEAEKFAQKMAKTYQLKMEIHNGEFHME | kcal/mol | 0.84
ITIHVNGVTYHFDNPEEAEKFAQKMAKTYQLKMEINNGEFHME | kcal/mol | 0.903
ITIHVNGVTYHFDNPEEAEKFAQKMAKTYQLKMEIHNGKFHME | kcal/mol | 0.828
ITIHVNGVTYHFDNPEEAEKGAQKMAKTYQLKMEIHNGEFHME | kcal/mol | -0.582
ITIHVNGVTYHFDNPEEAEKFAQKMAKTYQLKPEIHNGEFHME | kcal/mol | 0.368
ITIHVNGVTYHFDNPSEAEKFAQKMAKTYQLKMEIHNGEFHME | kcal/mol | 1.12
ITIHVNGVTYHFDNPEEAEKFAQKMAKTYQLKMEITNGEFHME | kcal/mol | 0.926
ITIHVNGVTYHFDNGEEAEKFAQKMAKTYQLKMEIHNGEFHME | kcal/mol | 1.04
ITIHVNGVEYHFDNPEEAEKFAQKMAKTYQLKMEIHNGEFHME | kcal/mol | 0.827
ITIHNNGVTYHFDNPEEAEKFAQKMAKTYQLKMEIHNGEFHME | kcal/mol | 0.312
ITIHVYGVTYHFDNPEEAEKFAQKMAKTYQLKMEIHNGEFHME | kcal/mol | 1.73
ITIHVNGVTYHFDNPEEAEKFACKMAKTYQLKMEIHNGEFHME | kcal/mol | 2.52
ITIHVNGVTYHFDNPEEAEKFATKMAKTYQLKMEIHNGEFHME | kcal/mol | 1.19
ITIHVNGVTYHFDNPEEAEKFAQKMAKTYQLKMEIHHGEFHME | kcal/mol | 1.11
ITIHTNGVTYHFDNPEEAEKFAQKMAKTYQLKMEIHNGEFHME | kcal/mol | 0.534
ITIHVNGVTYHFDNPEEAEKFAQYMAKTYQLKMEIHNGEFHME | kcal/mol | 2.27
ITIHVNGVTYHFDNPEEAEKFAQKMAKTYQLGMEIHNGEFHME | kcal/mol | 1.13
ITIHVNGVTYHFDNPEEAEKFAQKMAKTYQEKMEIHNGEFHME | kcal/mol | 1.29
ITIHVNGVTYHFDNPEEAEKFAQKMAKTYQLKMEIHNGEFRME | kcal/mol | 0.848
ITIHVNAVTYHFDNPEEAEKFAQKMAKTYQLKMEIHNGEFHME | kcal/mol | 0.95
ITIHVNGVTYHFDNPEEAEKFAQKMAKTYQLKMEIHQGEFHME | kcal/mol | 0.88
ITIHVNGVTYHFDNPDEAEKFAQKMAKTYQLKMEIHNGEFHME | kcal/mol | 1.25
ITIHVNGVTYHFDNPEEAEGFAQKMAKTYQLKMEIHNGEFHME | kcal/mol | 0.79
ITIHVNGVTYHFDNPEEAEKFAQKMAKTYQLKMETHNGEFHME | kcal/mol | 0.802
ITIHVNGVTYHFDAPEEAEKFAQKMAKTYQLKMEIHNGEFHME | kcal/mol | 0.947
ITIHVNGVTYHFDNPEEAEKFEQKMAKTYQLKMEIHNGEFHME | kcal/mol | 0.335
ITIHVNGVTYHFDNPEPAEKFAQKMAKTYQLKMEIHNGEFHME | kcal/mol | 0.444
ITIHVNGVTYHFDNPEEAEKFAQKMAKTYQLKMEIHNGEFHMK | kcal/mol | 1.5
ICIHVNGVTYHFDNPEEAEKFAQKMAKTYQLKMEIHNGEFHME | kcal/mol | 1.72
ITWHVNGVTYHFDNPEEAEKFAQKMAKTYQLKMEIHNGEFHME | kcal/mol | 0.819
ITIHVNGVTYHFDNPEEAEKFAQKMAKTYQLKMMIHNGEFHME | kcal/mol | 1.33
ITIHVNGVTYHFDNPEEAEKFAQKMAKTYQLKMEIHNGEFHLE | kcal/mol | 1.3
ITIHVNGVTYWFDNPEEAEKFAQKMAKTYQLKMEIHNGEFHME | kcal/mol | 1.24
ITIHVNGVTYHFDNPEEAEKFAQKMAKTYQWKMEIHNGEFHME | kcal/mol | 0.829
ITIHVNGVTYHFDNPEEAEKFAQKMAKTYQLKMEIHNGEDHME | kcal/mol | 0.578
ITIHVNGVYYHFDNPEEAEKFAQKMAKTYQLKMEIHNGEFHME | kcal/mol | 0.832
ITIHVNGVKYHFDNPEEAEKFAQKMAKTYQLKMEIHNGEFHME | kcal/mol | 1.51
ITIHVNGVTYHFSNPEEAEKFAQKMAKTYQLKMEIHNGEFHME | kcal/mol | 1.26
ITIHVNGVTYHFDNPEENEKFAQKMAKTYQLKMEIHNGEFHME | kcal/mol | -0.125
ITIHVNGVTYHFDNPEEAEKFAQKMAKTYQLKMEIHNFEFHME | kcal/mol | 0.963
ITITVNGVTYHFDNPEEAEKFAQKMAKTYQLKMEIHNGEFHME | kcal/mol | 0.943
ITIHVNGVTYHFDNPEEAEKFAQKMRKTYQLKMEIHNGEFHME | kcal/mol | 1.1
ITIHVNGVTYSFDNPEEAEKFAQKMAKTYQLKMEIHNGEFHME | kcal/mol | 1.05
ITIHVNGVTYHFDNPEEAEKFAEKMAKTYQLKMEIHNGEFHME | kcal/mol | 1.14
ITIHVNGVTYHFDNPEEAEKFAQKMEKTYQLKMEIHNGEFHME | kcal/mol | 1.12
ITIHVNNVTYHFDNPEEAEKFAQKMAKTYQLKMEIHNGEFHME | kcal/mol | 1.07
ITIHVNGVTYHFDNPEEAEKFAGKMAKTYQLKMEIHNGEFHME | kcal/mol | 0.566
ITIHVNGVTYHFDNPEEAEKFAQKMAKTYQLEMEIHNGEFHME | kcal/mol | 1.48
ITIHVNGVTYHFQNPEEAEKFAQKMAKTYQLKMEIHNGEFHME | kcal/mol | 1.11
ITIHVNGVTYHFDGPEEAEKFAQKMAKTYQLKMEIHNGEFHME | kcal/mol | 0.9
ITIHVNGVTYHFDNPEEAEKFAQKMAKTYQLKMEIHNGEFFME | kcal/mol | 1.55
ITIHLNGVTYHFDNPEEAEKFAQKMAKTYQLKMEIHNGEFHME | kcal/mol | 0.899
ITIHVNGATYHFDNPEEAEKFAQKMAKTYQLKMEIHNGEFHME | kcal/mol | 1.11
ITIHDNGVTYHFDNPEEAEKFAQKMAKTYQLKMEIHNGEFHME | kcal/mol | 0.38
ITIHVNGVTYHFDYPEEAEKFAQKMAKTYQLKMEIHNGEFHME | kcal/mol | 0.849
ITIHVNGVTYHFDNPEEAEKFAQKNAKTYQLKMEIHNGEFHME | kcal/mol | 0.081
ITIHVNGVTYHFDNPIEAEKFAQKMAKTYQLKMEIHNGEFHME | kcal/mol | 1.18
ITIHVNGVTYHFDNPEEAEKFAQKMAKTYQLKMEIHNGEPHME | kcal/mol | 0.69
ITIHVNGVTYHFDNPEEAEKFAQVMAKTYQLKMEIHNGEFHME | kcal/mol | 1.29
